Test system: Staphylococcus aureus
Test: Antibacterial activity against methicillin-resistant Staphylococcus aureus ATCC43300 assessed as inhibition of bacterial growth incubated for 96 hrs by broth microdilution method
Type: functional
Returns: string. Value is Yes if measured MIC is below 1 µg/mL, and No if it is greater than or equal to it.

// below: answered compounds
{"columns": ["Substance smiles", "Label"],
 "data": [
  ["C=C[C@]1(C)C[C@@H](OC(=O)CSc2ccccc2OCc2ccc(-c3ccccc3C#N)cc2)[C@]2(C)[C@H](C)CC[C@]3(CCC(=O)[C@H]32)[C@@H](C)[C@@H]1O", "No"],
  ["C=C[C@]1(C)C[C@@H](OC(=O)CSc2ccc(OCc3ccc(C)cc3)cc2)[C@]2(C)[C@H](C)CC[C@]3(CCC(=O)[C@H]32)[C@@H](C)[C@@H]1O", "No"],
  ["C=C[C@]1(C)C[C@@H](OC(=O)CSc2ccccc2OCC#CC)[C@]2(C)[C@H](C)CC[C@]3(CCC(=O)[C@H]32)[C@@H](C)[C@@H]1O", "Yes"],
  ["C=C[C@]1(C)C[C@@H](OC(=O)CSc2cccc(OCC#CC)c2)[C@]2(C)[C@H](C)CC[C@]3(CCC(=O)[C@H]32)[C@@H](C)[C@@H]1O", "Yes"]
]}

Does `C=C[C@]1(C)C[C@@H](OC(=O)CSc2ccccc2OCc2ccc(C(=O)OC(C)(C)C)cc2)[C@]2(C)[C@H](C)CC[C@]3(CCC(=O)[C@H]32)[C@@H](C)[C@@H]1O` have MIC strictly under 1 µg/mL?
No

Does `C=CCCOc1ccc(SCC(=O)O[C@@H]2C[C@@](C)(C=C)[C@@H](O)[C@H](C)[C@]34CCC(=O)[C@H]3[C@@]2(C)[C@H](C)CC4)cc1` have MIC strictly under 1 µg/mL?
Yes

Does `C=C[C@]1(C)C[C@@H](OC(=O)CSc2ccc(OCc3ccc(-c4ccccc4C#N)cc3)cc2)[C@]2(C)[C@H](C)CC[C@]3(CCC(=O)[C@H]32)[C@@H](C)[C@@H]1O` have MIC strictly under 1 µg/mL?
No

Does `C=C[C@]1(C)C[C@@H](OC(=O)CSc2cccc(O)c2)[C@]2(C)[C@H](C)CC[C@]3(CCC(=O)[C@H]32)[C@@H](C)[C@@H]1O` have MIC strictly under 1 µg/mL?
Yes

Does `C=C[C@]1(C)C[C@@H](OC(=O)CSc2cccc(OCc3ccc(C)cc3)c2)[C@]2(C)[C@H](C)CC[C@]3(CCC(=O)[C@H]32)[C@@H](C)[C@@H]1O` have MIC strictly under 1 µg/mL?
No

Does `C=C[C@]1(C)C[C@@H](OC(=O)CSc2ccccc2O)[C@]2(C)[C@H](C)CC[C@]3(CCC(=O)[C@H]32)[C@@H](C)[C@@H]1O` have MIC strictly under 1 µg/mL?
Yes

Does `C=C[C@]1(C)C[C@@H](OC(=O)CSc2ccccc2OCCCC)[C@]2(C)[C@H](C)CC[C@]3(CCC(=O)[C@H]32)[C@@H](C)[C@@H]1O` have MIC strictly under 1 µg/mL?
Yes

* * *

System: Staphylococcus aureus
Test: Antibacterial activity against Staphylococcus aureus ATCC 29213 assessed as inhibition of bacterial growth incubated for 96 hrs by broth microdilution method
Assay type: functional
Entries and their MIC values follow.
Lab book: enter the figure in mg/L, no units written.

{"columns": ["Substance smiles", "Result number"],
 "data": [
  ["C=C[C@]1(C)C[C@@H](OC(=O)CSc2ccccc2O)[C@]2(C)[C@H](C)CC[C@]3(CCC(=O)[C@H]32)[C@@H](C)[C@@H]1O", 0.125]
]}

Give a short answer stating reported MIC for `C=C[C@]1(C)C[C@@H](OC(=O)CSCCN(CC)CC)[C@]2(C)[C@H](C)CC[C@]3(CCC(=O)[C@H]32)[C@@H](C)[C@@H]1O` .
0.5

Give a short answer stating reported MIC for `C=C[C@]1(C)C[C@@H](OC(=O)CSc2ccc(OCc3ccc(C(=O)OC(C)(C)C)cc3)cc2)[C@]2(C)[C@H](C)CC[C@]3(CCC(=O)[C@H]32)[C@@H](C)[C@@H]1O` .
4

Give a short answer stating reported MIC for `C=C[C@]1(C)C[C@@H](OC(=O)CSc2ccc(OCc3ccc(-c4ccccc4C#N)cc3)cc2)[C@]2(C)[C@H](C)CC[C@]3(CCC(=O)[C@H]32)[C@@H](C)[C@@H]1O` .
4

Give a short answer stating reported MIC for `C=C[C@]1(C)C[C@@H](OC(=O)CSc2ccccc2OCCCC)[C@]2(C)[C@H](C)CC[C@]3(CCC(=O)[C@H]32)[C@@H](C)[C@@H]1O` .
0.5

Give a short answer stating reported MIC for `C=C[C@]1(C)C[C@@H](OC(=O)CSc2ccc(OCc3ccc(C)cc3)cc2)[C@]2(C)[C@H](C)CC[C@]3(CCC(=O)[C@H]32)[C@@H](C)[C@@H]1O` .
16

Give a short answer stating reported MIC for `C=C[C@]1(C)C[C@@H](OC(=O)CSc2cccc(OCc3ccc(C)cc3)c2)[C@]2(C)[C@H](C)CC[C@]3(CCC(=O)[C@H]32)[C@@H](C)[C@@H]1O` .
16

Give a short answer stating reported MIC for `C=CCCOc1cccc(SCC(=O)O[C@@H]2C[C@@](C)(C=C)[C@@H](O)[C@H](C)[C@]34CCC(=O)[C@H]3[C@@]2(C)[C@H](C)CC4)c1` .
0.5

Give a short answer stating reported MIC for `C=C[C@]1(C)C[C@@H](OC(=O)CSc2ccccc2OCc2ccc(C)cc2)[C@]2(C)[C@H](C)CC[C@]3(CCC(=O)[C@H]32)[C@@H](C)[C@@H]1O` .
16

* * *

Assay: Toxicity against rabbit red blood cells assessed as hemolysis rate at 100 ug/ml by absorbance based analysis
Type: cell-based, Oryctolagus cuniculus, Erythrocyte
Conditions: at 100 µg/mL, read-out: Activity
Recorded metric: hemolysis at 100 ug/ml

Give a short answer stating reported hemolysis at 100 ug/ml for `C=C[C@]1(C)C[C@@H](OC(=O)CSc2ccccc2OCC(=O)N2CCS(=O)(=O)CC2)[C@]2(C)[C@H](C)CC[C@]3(CCC(=O)[C@H]32)[C@@H](C)[C@@H]1O` .
< 15%

* * *

Tested on: Staphylococcus aureus
Assay: Antibacterial activity against methicillin-resistant Staphylococcus aureus ATCC43300 assessed as inhibition of bacterial growth incubated for 96 hrs by broth microdilution method
Assay type: functional
Returns: string. Value is Satisfied if measured MIC is below 2 µg/mL, and Not satisfied if it is greater than or equal to it.

{"columns": ["Substance smiles", "Target entity", "Label"],
 "data": [
  ["C=C[C@]1(C)C[C@@H](OC(=O)CSc2ccc(OCc3ccc(C(=O)OC(C)(C)C)cc3)cc2)[C@]2(C)[C@H](C)CC[C@]3(CCC(=O)[C@H]32)[C@@H](C)[C@@H]1O", "Staphylococcus aureus", "Not satisfied"],
  ["C=CCCOc1ccccc1SCC(=O)O[C@@H]1C[C@@](C)(C=C)[C@@H](O)[C@H](C)[C@]23CCC(=O)[C@H]2[C@@]1(C)[C@H](C)CC3", "Staphylococcus aureus", "Satisfied"],
  ["C=C[C@]1(C)C[C@@H](OC(=O)CSc2ccc(O)cc2)[C@]2(C)[C@H](C)CC[C@]3(CCC(=O)[C@H]32)[C@@H](C)[C@@H]1O", "Staphylococcus aureus", "Satisfied"]
]}

Does `C=C[C@]1(C)C[C@@H](OC(=O)CSc2ccc(OCC#CC)cc2)[C@]2(C)[C@H](C)CC[C@]3(CCC(=O)[C@H]32)[C@@H](C)[C@@H]1O` have MIC strictly under 2 µg/mL?
Satisfied

Does `C=CCCOc1cccc(SCC(=O)O[C@@H]2C[C@@](C)(C=C)[C@@H](O)[C@H](C)[C@]34CCC(=O)[C@H]3[C@@]2(C)[C@H](C)CC4)c1` have MIC strictly under 2 µg/mL?
Satisfied

Does `C=C[C@]1(C)C[C@@H](OC(=O)CSc2cccc(OCc3ccc(C(=O)OC(C)(C)C)cc3)c2)[C@]2(C)[C@H](C)CC[C@]3(CCC(=O)[C@H]32)[C@@H](C)[C@@H]1O` have MIC strictly under 2 µg/mL?
Not satisfied

* * *

Test system: Staphylococcus aureus
Assay: Antibacterial activity against Staphylococcus aureus ATCC 29213 assessed as inhibition of bacterial growth incubated for 96 hrs by broth microdilution method
Type: functional
Entries and their log10 MIC values follow.
Use the decimal logarithm of MIC (µg/mL).

Take a look at these entries with their results.
{"columns": ["Substance smiles", "Target entity", "log10 MIC"],
 "data": [
  ["C=C[C@]1(C)C[C@@H](OC(=O)CSc2ccc(OCC#CC)cc2)[C@]2(C)[C@H](C)CC[C@]3(CCC(=O)[C@H]32)[C@@H](C)[C@@H]1O", "Staphylococcus aureus", -0.60],
  ["C=C[C@]1(C)C[C@@H](OC(=O)CSc2cccc(O)c2)[C@]2(C)[C@H](C)CC[C@]3(CCC(=O)[C@H]32)[C@@H](C)[C@@H]1O", "Staphylococcus aureus", -0.90],
  ["C=C[C@]1(C)C[C@@H](OC(=O)CSc2cccc(OCc3ccc(-c4ccccc4C#N)cc3)c2)[C@]2(C)[C@H](C)CC[C@]3(CCC(=O)[C@H]32)[C@@H](C)[C@@H]1O", "Staphylococcus aureus", 0.60],
  ["C=C[C@]1(C)C[C@@H](OC(=O)CSc2cccc(OCCCC)c2)[C@]2(C)[C@H](C)CC[C@]3(CCC(=O)[C@H]32)[C@@H](C)[C@@H]1O", "Staphylococcus aureus", 0.30],
  ["C=C[C@]1(C)C[C@@H](OC(=O)CSc2ccc(OCCCC)cc2)[C@]2(C)[C@H](C)CC[C@]3(CCC(=O)[C@H]32)[C@@H](C)[C@@H]1O", "Staphylococcus aureus", 0.30]
]}

Give a short answer stating reported log10 MIC for `C=C[C@]1(C)C[C@@H](OC(=O)CSc2cccc(OCc3ccc(C(=O)OC(C)(C)C)cc3)c2)[C@]2(C)[C@H](C)CC[C@]3(CCC(=O)[C@H]32)[C@@H](C)[C@@H]1O` .
0.60

Give a short answer stating reported log10 MIC for `C=C[C@]1(C)C[C@@H](OC(=O)CSc2ccccc2OCC#CC)[C@]2(C)[C@H](C)CC[C@]3(CCC(=O)[C@H]32)[C@@H](C)[C@@H]1O` .
-0.90

Give a short answer stating reported log10 MIC for `C=C[C@]1(C)C[C@@H](OC(=O)CSc2ccccc2OCc2ccc(-c3ccccc3C#N)cc2)[C@]2(C)[C@H](C)CC[C@]3(CCC(=O)[C@H]32)[C@@H](C)[C@@H]1O` .
0.30

Give a short answer stating reported log10 MIC for `C=CCCOc1ccc(SCC(=O)O[C@@H]2C[C@@](C)(C=C)[C@@H](O)[C@H](C)[C@]34CCC(=O)[C@H]3[C@@]2(C)[C@H](C)CC4)cc1` .
-0.60
